target or test system: GST-JAK2(808-1132) (Homo sapiens)
Construct: GST-JAK2(808-1132); purchased Invitrogen (Carlsbad, USA) #4288
Sequence (O60674 808-1132): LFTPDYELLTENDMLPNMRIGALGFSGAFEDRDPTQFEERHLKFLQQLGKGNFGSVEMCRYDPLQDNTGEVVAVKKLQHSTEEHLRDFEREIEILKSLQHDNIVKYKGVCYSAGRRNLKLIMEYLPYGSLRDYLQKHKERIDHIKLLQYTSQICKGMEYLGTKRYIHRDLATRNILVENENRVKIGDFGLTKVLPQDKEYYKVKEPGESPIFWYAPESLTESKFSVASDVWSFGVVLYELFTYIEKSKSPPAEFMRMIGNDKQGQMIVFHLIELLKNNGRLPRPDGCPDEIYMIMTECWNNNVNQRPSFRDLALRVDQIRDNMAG
test method notes: JAK2 kinase assay (Caliper mobility shift, LabChip 3000)
Assay type: biochemical
condition notes: Table 3
Entries and their measured IC50 follow.
property: IC50 (nM)

# entry smiles, sign qualifier, meas value
rows = [
    ("COCc1c(F)cc(-n2ccc3cnc(Nc4ccc(N5CCN(C)CC5)nc4)nc32)cc1F", "=", 4.3),
    ("OCCN1CCOC[C@@H]1c1ccc(Nc2ncc3ccn(-c4cc(F)c(CN5CCOCC5)c(F)c4)c3n2)cc1", "<", 3),
    ("Cn1cc(Nc2ncc3ccn(-c4ccc(CC(=O)N5CCOCC5)cc4)c3n2)cn1", "<", 3),
    ("CN1CCN(c2ccc(Nc3ncc4ccn(-c5ccc(C#N)cc5)c4n3)cn2)CC1", "=", 11),
    ("CN1CCN(C(=O)c2cccc(Nc3ncc4ccn(-c5cc(F)c(CN6CCOCC6)c(F)c5)c4n3)c2)CC1", "=", 6.4),
    ("Cc1cc(Nc2ncc3ccn(-c4ccc(C(=O)N5CCOCC5)c(F)c4)c3n2)nn1C", "=", 31),
    ("COc1cc(Nc2ncc3ccn(-c4ccc(C(=O)N5CCOCC5)c(F)c4)c3n2)ccc1F", "=", 5.7),
    ("Cc1ccc(Nc2ncc3ccn(-c4cc(F)c(CN5CCNC(=O)C5)c(F)c4)c3n2)cc1CN1CCNCC1", "=", 3.5),
]
